Source of measurements: PubChem BioAssay AID588522

# System: Candida albicans drug resistance protein 1 (Cdr1) expressed in S. cerevisiae
# experiment-description: Cdr1 pump blockade via Nile Red efflux – S. cerevisiae AD/CaCDR1, flow cytometry, cherry pick 1, singleplex, confirmation (AID 588522)
# measurement-setup: at 10 µM, active compounds read high
Out of some 1,700 compounds screened, about 20 (1%) were called active. The full list was thinned out, with actives kept by preference.
metric: inhibition (%)

>>> print(df.to_string())
                                   compound                           subject_of_test  reported_result
0  C=CCC[C@@H](Cc1ccc(F)cc1)C(=O)OC[C@H](Cc1c[nH]c2ccccc12)NC(=O)[C@@H](CC=C)CC(=O)N(CCO)Cc1ccccc1  Candida albicans drug resistance protein 1 (Cdr1) expressed in S. cerevisiae             0.17
1  O=C(CCCCCn1c(=O)[nH]c2ccccc2c1=O)NCCc1c[nH]c2ccccc12  Candida albicans drug resistance protein 1 (Cdr1) expressed in S. cerevisiae            -0.02
2  CCc1ccc(NC(=O)Cn2ncn3c(cc4ccccc43)c2=O)cc1  Candida albicans drug resistance protein 1 (Cdr1) expressed in S. cerevisiae            -0.23
3              Cc1cccc(NC(=O)COc2ccccc2C)n1  Candida albicans drug resistance protein 1 (Cdr1) expressed in S. cerevisiae            -0.06
4  Cc1cc(C)cc(NC(=O)C(OC(=O)c2ccc(O)cc2)c2ccccc2)c1 (stereo not given)  Candida albicans drug resistance protein 1 (Cdr1) expressed in S. cerevisiae            -0.12
5  CSCCC(NC(=O)COc1ccccc1)C(=O)OCCOc1ccc(Br)cc1 (stereo not given)  Candida albicans drug resistance protein 1 (Cdr1) expressed in S. cerevisiae            -0.03
6  Cc1cc(C(=O)Nc2ccc(C)c(S(=O)(=O)N3CCOCC3)c2)c2ccccc2n1  Candida albicans drug resistance protein 1 (Cdr1) expressed in S. cerevisiae            -0.08
7                CN=C(c1ccccc1)c1c(C)cccc1C  Candida albicans drug resistance protein 1 (Cdr1) expressed in S. cerevisiae             0.01
8  CCCc1nc(N2CCN(C)CC2)c2sc(=S)n(-c3ccccc3)c2n1  Candida albicans drug resistance protein 1 (Cdr1) expressed in S. cerevisiae             0.07
9  CCCCOc1ccc(C(=O)NCC(=O)OCC(=O)c2c(N)n(C)c(=O)n(C)c2=O)cc1  Candida albicans drug resistance protein 1 (Cdr1) expressed in S. cerevisiae              106

---

# Test system: Candida albicans drug resistance protein 1 (Cdr1) expressed in S. cerevisiae
# experiment-description: Cdr1 pump blockade via Nile Red efflux – S. cerevisiae AD/CaCDR1, flow cytometry, cherry pick 1, singleplex, confirmation (AID 588522)
# measurement-setup: at 10 µM, active compounds read high
Hit rate of the full screen: of about 1,700 compounds, about 20 (1%) were called active. Only a selection was taken, and actives are over-represented in it overall.
metric: inhibition (%)

                                    molecule  reported_result
 0  COc1ccc(C(=O)NC(=S)Nc2ccc(N3CCCC3)cc2)cc1OC            -0.15
 1  Cc1ccc(Cn2nnc3c(=O)[nH]c(C4CCN(S(=O)(=O)/C=C/c5ccccc5)CC4)nc32)cc1            -0.06
 2  CCOc1ccc(/C=C2\SC(=S)N(NC(=O)c3ccncc3)C2=O)cc1OC            -0.06
 3  O=C(Cc1ccccc1)NCC1OCCc2ccccc21 (stereo not drawn)            -0.03
 4  COc1ccc2[nH]c3c(C)c4cc[n+](C)cc4c(C)c3c2c1             0.08
 5  CCOc1ccc2nc(Cl)c(C3CC(c4ccccc4)=NN3C(=O)c3cccs3)cc2c1 (stereo not drawn)             0.11
 6     O=C(OCc1ccc(-c2ccccc2)cc1)c1cccc(O)c1             0.08
 7  COc1ccccc1NC(=O)C1CCCN1S(=O)(=O)c1ccc(Cl)cc1 (stereo not drawn)            -0.03
 8  COc1ccc(-c2sc3ccccc3c2-c2ccc(OCCN3CCOCC3)cc2)cc1            -0.26
 9  Cc1ccc(/C=C(\C#N)C(=O)Nc2cccc3ncccc23)o1            -0.54
10    CCCc1nnc(SCC(=O)Nc2ccc(C(=O)OCC)cc2)o1             0.53
11  CC1CCc2c(sc(NC(=O)c3ccc(Cn4cc(Br)cn4)o3)c2C(N)=O)C1 (stereo not drawn)            -0.03
12  O=C(NCc1ccccc1)C(=O)NCC1OCCN1S(=O)(=O)c1ccc(Br)cc1 (stereo not drawn)            -0.27
13      CC[n+]1cc(C)ccc1/C=C/c1ccc(N(C)C)cc1             4.74
14  COc1ccc(NC(=S)N2CCc3cc(OC)c(OC)cc3C2)cc1             0.16
15  CCOc1ccc(C2/C(=C(/O)c3ccc4c(c3)CC(C)O4)C(=O)C(=O)N2CCCn2ccnc2)cc1 (stereo not drawn)             0.05
16  CN1CCN(S(=O)(=O)c2ccc(NC(=S)NC(=O)C3CC3)cc2)CC1            -0.08
17  CC(C)C(=O)N1CCC2(CC1)Oc1ccc(F)cc1C(=O)C21CC(c2ccccc2)=NO1 (stereo not drawn)             0.01

---

# System: Candida albicans drug resistance protein 1 (Cdr1) expressed in S. cerevisiae
# experiment-description: Cdr1 pump blockade via Nile Red efflux – S. cerevisiae AD/CaCDR1, flow cytometry, cherry pick 1, singleplex, confirmation (AID 588522)
# measurement-setup: at 10 µM, active compounds read high
The campaign covered roughly 1,700 compounds. About 20 (1%) were called active. The sample as a whole holds a higher share of actives than the screen did.
metric: inhibition (%)

                                   compound  reported_result
0        O=C(/C=C/c1c(Cl)cccc1Cl)NCc1ccccc1            -0.01
1  COc1ccc(C(=O)NC2CC(C)(C)Cc3c2cnn3-c2ccccc2)c(OC)c1 (stereo not given)            -0.08
2  Cc1ccc2c(c1)NC(=O)[C@@]1(C)[C@@H](c3ccccc3)[C@H]3COc4ccc(Cl)cc4[C@@H]3N1C2=O             0.07
3         CCNC(=O)c1c(O)c2cccc3c2n(c1=O)CC3            -0.08
4  Cc1ccc2[nH]c3c(=O)n(CC(=O)NCCc4ccc(Cl)cc4)ncc3c2c1             0.27
5  O=C(CNC(=O)c1ccc(-c2ccccc2)cc1)OCc1ccc(Cl)cc1             0.15
6  COc1ccc(C(=O)C2CCCN(Cc3cccn3-c3ccccn3)C2)c(C)c1 (stereo not given)             0.01
7  COc1cccc(NC(=O)CN(C)C(=O)/C=C/c2cc(OC)ccc2OC)c1            -0.15
8  CCCCCC(=O)Nc1ccc(C(=O)N/N=C/c2ccc([N+](=O)[O-])cc2)cc1             0.01
9  CC(/C=C/c1ccccc1)=N\NC(=O)C1CC1(C)c1ccccc1 (stereo not given)            -0.03

---

# System: Candida albicans drug resistance protein 1 (Cdr1) expressed in S. cerevisiae
# experiment-description: Cdr1 pump blockade via Nile Red efflux – S. cerevisiae AD/CaCDR1, flow cytometry, cherry pick 1, singleplex, confirmation (AID 588522)
# measurement-setup: at 10 µM, active compounds read high
The campaign covered roughly 1,700 compounds. About 20 (1%) were called active. The sample holds actives, similar compounds and a random draw of the others, so the mix is not that of the screen.
metric: inhibition (%)

In [3]: df
Out[3]:
                                    compound  reported_result
 0  O=C(CN1C(=O)C2C3CCC(C3)C2C1=O)Oc1ccc2ccccc2c1 (stereo unspecified)            -0.01
 1  Cc1nn(C)cc1N1C(=O)c2cccc3c(N)ccc(c23)C1=O            -0.53
 2  O=C(CSc1nnc(-c2cccnc2)n1Cc1ccco1)c1ccc(Cl)c(Cl)c1            -0.04
 3  Cc1ccc(N=C2NC(=O)/C(=C/C=C/c3ccco3)S2)cc1C             0.36
 4  CC12CCC(C(=O)N(c3cccc(Cl)c3)C1=O)C2(C)C (stereo unspecified)             0.11
 5  Cc1ccc(OCc2cc(C(=O)N(C)CCc3ccccc3)no2)cc1C            -0.15
 6  CCOC(=O)c1c(NC(=S)NC(=O)c2ccco2)sc2c1CCCC2            -0.31
 7    COc1ccc(/C=C(\C#N)c2c[nH]c3ccccc23)cc1             -0.2
 8  CSCCC(NS(=O)(=O)c1ccc(C)cc1)C(=O)N1CCCC1 (stereo unspecified)             -0.1
 9  CCNc1c(NS(=O)(=O)c2ccc(C3CCCCC3)cc2)c(=O)oc2ccccc12             -0.2
10      O=C(Cc1ccc(Br)cc1)N1CCN(c2ccccn2)CC1            -0.06
